B1: CPEB3 Ribozyme (parent)
chain: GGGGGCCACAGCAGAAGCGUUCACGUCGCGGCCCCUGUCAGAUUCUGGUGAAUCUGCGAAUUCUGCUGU

variants of: B1; assay: self-cleavage, relative activity (ratio to wild type); higher = more cleavage; co-transcriptional
ASSAY_METRIC: self-cleavage

• G11C C29U = 0.12
• G5U A51U = 0.236
• U20C G28C = 0.133
• A8G G47U = 0.92
• U20G A40U = 0.134
• C63A U64A = 0.62
• G4C A16G = 0.122
• U38G G56U = 0.672
• U21G A42U = 0.503
• G3U G47U = 0.175
• G19C G41A = 0.142
• A42G G65C = 0.508
• G50U U69A = 0.99
• U62A G68A = 0.924
• G17U U36A = 0.0699
• G4A C29G = 0.103
• C18U C39U = 0.551
• C54G G56A = 0.658
• A40G U46C = 0.942
• C6U C32G = 0.246
• C12U U38C = 0.921
• A8C C22G = 0.19

FYI, the data here is from the RNAGym collection of RNA variant scans (doi:10.7554/elife.80360).
